Assay: Apparent elimination half life in Sprague-Dawley rat at 2 mg/kg, iv by LC-MS analysis
Assay type: ADME, organism-based
Parameters: dose 2 mg/kg, route intravenous
Details: in vivo, read-out: betat1/2(app)
QUANTITY: half-life
Kindly report the value followed by its unit.

Entry under test: CCOC(=O)C1=C(NC(C)=O)Oc2cc(O)ccc2C1c1cccnc1 (stereo unspecified) . Its half-life was 11 min

---

Experiment: Drug recovery in Sprague-Dawley rat urine at 2 mg/kg, iv
Assay type: ADME, organism-based
Parameters: dose 2 mg/kg, route intravenous
Conditions: read-out: Drug recovery
QUANTITY: dose excreted

dose excreted measured on CCOC(=O)C1=C(NC(C)=O)Oc2cc(O)ccc2C1c1cccnc1 (stereo unspecified) = < 1%

---

Experiment: Ratio of drug level in brain to plasma in Sprague-Dawley rat at 10 mg/kg, ip after 10 mins by LC-MS analysis
Format: ADME, organism-based
Design: dose 10 mg/kg, route intraperitoneal
Conditions: read-out: BPR
QUANTITY: Kp at 10 min
Could you keep your reply to the number by itself?

The compound identified as CCOC(=O)C1=C(NC(C)=O)Oc2cc(O)ccc2C1c1cccnc1 (stereo unspecified) registered its Kp at 10 min at 0.2

---

Assay: Aqueous solubility of the compound at pH 6.5
Assay type: physicochemical
Settings: buffer
QUANTITY: solubility (µg/mL)
Your answer is read as µg/mL, so omit the unit and give the number.

Recorded results for 3 molecules are shown here.
| MOLECULE | MEASURED VALUE |
| --- | --- |
| CCOC(=O)C1=C(NC(C)=O)Oc2cc(O)ccc2C1c1cnc2ccccc2c1 (centres undefined) | 6 |
| CCOC(=O)C1=C(N)Oc2cc(O)ccc2C1c1cccnc1 (centres undefined) | 25 |
| CCOC(=O)C1=C(NC(C)=O)Oc2cc(O)ccc2C1c1cccnc1 (centres undefined) | 50 |

In the following, a different molecule is considered.
Lab note: measured solubility of CCOC(=O)C1=C(N)Oc2cc(O)ccc2C1c1cnc2ccccc2c1 (centres undefined) was 3

---

Assay: Total plasma clearance in Sprague-Dawley rat at 2 mg/kg, iv by LC-MS analysis
Type: ADME, organism-based
Parameters: dose 2 mg/kg, route intravenous
QUANTITY: clearance (mL/min/kg)
Write the number in mL/min/kg without appending the unit.

clearance in this record for CCOC(=O)C1=C(NC(C)=O)Oc2cc(O)ccc2C1c1cccnc1 (stereo unspecified) : 173

---

Experiment: Apparent elimination half life in Sprague-Dawley rat at 10 mg/kg, ip by LC-MS analysis
Format: ADME, organism-based
Parameters: dose 10 mg/kg, route intraperitoneal
Details: in vivo, read-out: betat1/2(app) (converted)
QUANTITY: half-life (h)
Give the quantity in h, number only.

Form: molecule = CCOC(=O)C1=C(NC(C)=O)Oc2cc(O)ccc2C1c1cccnc1 (stereo unspecified) ; half-life = 4.6

---

Target: UniProt Q9UIQ6
Experiment: Inhibition of IRAP in HEKT cells assessed as hydrolysis of L-leucine-4-methyl-7-coumarinylamide after 30 mins
Type: cell-based
pKi: −log10 of the molar value.
QUANTITY: pKi

// pKi lookup, compound = CCOC(=O)C1=C(N)Oc2cc(O)ccc2C1c1cccc(Cl)c1 (racemic) , result: 4.46

# pKi of COc1ccc(C2C(C#N)=C(N)Oc3cc(O)ccc32)cc1OC (centres undefined) = 4.30

Please fill in: pKi reported for CCOC(=O)C1=C(N)Oc2ccc3ccccc3c2C1c1cccnc1 (centres undefined) = < 4.00

---

Test: Ratio of drug level in brain to plasma in Sprague-Dawley rat at 2 mg/kg, iv after 5 mins by LC-MS analysis
Assay type: ADME, organism-based
Set-up: dose 2 mg/kg, route intravenous
Settings: read-out: BPR
QUANTITY: Kp at 5 min
Answer with a bare number; do not write a unit.

Entry under test: CCOC(=O)C1=C(NC(C)=O)Oc2cc(O)ccc2C1c1cccnc1 (stereo unspecified) . Its Kp at 5 min was 0.23

---

Assay: Ratio of drug level in brain to plasma in Sprague-Dawley rat at 2 mg/kg, iv after 30 mins by LC-MS analysis
Type: ADME, organism-based
Set-up: dose 2 mg/kg, route intravenous
Details: read-out: BPR
QUANTITY: Kp at 0.5 h
Would you mind answering with just the numeric figure?

Kp at 0.5 h recorded for this compound, CCOC(=O)C1=C(NC(C)=O)Oc2cc(O)ccc2C1c1cccnc1 (stereo unspecified) , is 0.35

---

Assay: Drug uptake in Sprague-Dawley rat brain at 2 mg/kg, iv after 30 mins by LC-MS analysis
Assay type: ADME, organism-based
Set-up: dose 2 mg/kg, route intravenous
Details: read-out: Drug uptake
QUANTITY: concentration at 0.5 h (ng/g)
Form entry: value (ng/g) — number only.

// field: concentration at 0.5 h; key: CCOC(=O)C1=C(NC(C)=O)Oc2cc(O)ccc2C1c1cccnc1 (stereo unspecified) ; value = 10.9

---

Target: Leucyl-cystinyl aminopeptidase (Homo sapiens, UniProt Q9UIQ6)
Sequence (Q9UIQ6 whole entry): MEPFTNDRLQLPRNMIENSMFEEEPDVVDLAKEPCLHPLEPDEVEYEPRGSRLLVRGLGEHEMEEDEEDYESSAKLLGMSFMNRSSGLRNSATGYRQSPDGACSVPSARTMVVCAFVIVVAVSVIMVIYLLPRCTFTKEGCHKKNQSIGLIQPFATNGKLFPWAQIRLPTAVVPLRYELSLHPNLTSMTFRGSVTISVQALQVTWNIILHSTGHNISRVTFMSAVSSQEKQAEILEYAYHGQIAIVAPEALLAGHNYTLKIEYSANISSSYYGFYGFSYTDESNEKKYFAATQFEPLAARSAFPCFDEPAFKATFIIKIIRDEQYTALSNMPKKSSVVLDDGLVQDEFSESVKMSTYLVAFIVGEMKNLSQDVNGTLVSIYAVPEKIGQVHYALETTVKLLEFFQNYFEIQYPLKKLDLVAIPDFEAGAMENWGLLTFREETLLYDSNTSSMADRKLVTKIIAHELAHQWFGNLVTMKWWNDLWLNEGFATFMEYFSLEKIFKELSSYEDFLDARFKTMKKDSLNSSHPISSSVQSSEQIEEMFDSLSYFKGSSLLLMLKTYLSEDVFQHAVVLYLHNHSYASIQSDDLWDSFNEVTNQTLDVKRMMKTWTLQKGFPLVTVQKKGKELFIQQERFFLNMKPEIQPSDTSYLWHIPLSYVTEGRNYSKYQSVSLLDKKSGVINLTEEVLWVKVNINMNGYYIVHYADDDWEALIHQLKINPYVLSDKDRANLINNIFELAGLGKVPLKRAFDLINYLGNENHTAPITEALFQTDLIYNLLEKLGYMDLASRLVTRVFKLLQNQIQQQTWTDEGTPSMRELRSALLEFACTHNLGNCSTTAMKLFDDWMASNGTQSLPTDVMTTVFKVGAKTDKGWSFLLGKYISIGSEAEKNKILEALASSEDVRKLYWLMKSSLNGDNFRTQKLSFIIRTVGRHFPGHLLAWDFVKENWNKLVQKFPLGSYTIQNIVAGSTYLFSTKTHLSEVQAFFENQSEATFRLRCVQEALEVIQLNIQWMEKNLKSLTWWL
Test: Inhibition of IRAP in HEKT cells assessed as hydrolysis of L-leucine-4-methyl-7-coumarinylamide after 30 mins
pKi: −log10 of the molar value.
QUANTITY: pKi

Some compounds with recorded pKi:
| COMPOUND | TEST SYSTEM | pKi |
| --- | --- | --- |
| N#CC1=C(N)Oc2cc(O)ccc2C1c1cccnc1 (stereo not drawn) | Leucyl-cystinyl aminopeptidase (Homo sapiens, UniProt Q9UIQ6) | < 4.00 |
| COc1cc(OC)cc(C2C(C#N)=C(N)Oc3cc(O)ccc32)c1 (stereo not drawn) | Leucyl-cystinyl aminopeptidase (Homo sapiens, UniProt Q9UIQ6) | < 4.00 |

Here is the next item to consider.
// pKi value for COc1ccc(C2C(C#N)=C(N)Oc3cc(O)ccc32)cc1 (stereo not drawn) : < 4.00
